target: cPLA2 (Homo sapiens, UniProt P47712); test: cPLA2 Enzymatic Activity Assay, 14C-PC/DG liposome substrate; format: biochemical; conditions: 14C-PC/DG liposomes, 37° C., 15 min, pH 7.5; read-out: C-PLA2 Enzyme, C14PC/DA6 (IC50)
Sequence (P47712 whole entry): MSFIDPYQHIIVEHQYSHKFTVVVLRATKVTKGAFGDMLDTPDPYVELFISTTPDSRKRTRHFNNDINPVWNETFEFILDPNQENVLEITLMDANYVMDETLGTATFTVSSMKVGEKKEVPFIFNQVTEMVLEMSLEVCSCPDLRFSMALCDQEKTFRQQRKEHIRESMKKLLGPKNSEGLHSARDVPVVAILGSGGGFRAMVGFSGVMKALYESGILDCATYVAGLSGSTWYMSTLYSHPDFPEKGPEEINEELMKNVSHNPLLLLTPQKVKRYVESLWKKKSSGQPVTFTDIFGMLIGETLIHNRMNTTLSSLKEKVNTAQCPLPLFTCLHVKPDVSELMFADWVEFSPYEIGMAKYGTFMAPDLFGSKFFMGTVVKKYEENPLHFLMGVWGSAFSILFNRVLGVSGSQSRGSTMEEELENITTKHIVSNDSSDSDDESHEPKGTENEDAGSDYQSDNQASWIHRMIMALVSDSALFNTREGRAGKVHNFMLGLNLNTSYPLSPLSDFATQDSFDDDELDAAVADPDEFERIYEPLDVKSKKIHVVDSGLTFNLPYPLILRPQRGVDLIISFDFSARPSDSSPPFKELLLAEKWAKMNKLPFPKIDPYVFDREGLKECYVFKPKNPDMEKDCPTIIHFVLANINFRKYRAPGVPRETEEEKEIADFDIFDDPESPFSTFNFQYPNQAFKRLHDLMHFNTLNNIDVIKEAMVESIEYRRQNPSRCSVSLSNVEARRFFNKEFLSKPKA
reported-endpoint: IC50 (µM)
Numbers only, in µM.

Please report the measured IC50 for O=C(c1ccccc1)c1c(-c2ccc(O)cc2)sc2cc(O)ccc12
7.3

* * *

test: MCII mast cell toxicity assay (XTT); type: cell-based; settings: mouse, mcii mast cells, 4-12 hours, 37° C., read-out: MCII Mast Cell Toxicity (IC50)
reported-endpoint: CC50

structure-smiles	CC50
Oc1ccc(-c2cc3ccc(O)cc3s2)cc1	< 10 µM

Would you mind giving CC50 for every compound in the list below?
1. O=C(c1ccc2ccccc2c1)c1c(-c2ccc(O)cc2)sc2cc(O)ccc12
2. O=C(c1cccc2ccccc12)c1c(-c2ccc(O)cc2)sc2cc(O)ccc12
3. O=C(c1ccccc1)c1c(-c2ccc(O)cc2)sc2cc(O)ccc12

["> 10 µM", "> 10 µM", "0.3 µM"]
